Test: Measured pKa of cationic lipids in LNP or micellar formulations by TNS fluorescence
Assay type: physicochemical
Details: measured in the Formulation milieu, TNS fluorescence, 1 mM total lipids
Description: pKa of cationic lipids in LNP or micellar Formulations were measured by the procedure of Jayaraman, 2012, Angew. Chem. Int. Ed., 51:8529-33, hereby incorporated by reference. Lipid micelles or LNPs are diluted to 1 mM total lipids in universal buffer with a pH range between 3 and 12 in presence of 0.06 mg/mL 6-(p-toluidino)-2-naphthalenesulfonic acid sodium salt (TNS) reagent (Sigma Aldrich), a pH sensitive fluorescence probe. […] The TNS signal is measured on a spectral plate reader. […]
Measurement type: pKa
Give only the figure.

pKa for `CCCCCC(CCCCC)OC(=O)CCCN(CCCC(=O)OC(CCCCC)CCCCC)C(=O)SCCCN(CC)CC` is 5.56

Looking up `CCCCCC/C=C\COC(=O)CN(CC(=O)OC(CCCCCCCC)CCCCCCCC)C(=O)SCCCN(C)C` , I see its pKa listed as 6.38

Lab book: pKa of `CCCCCCCC(CCCCCCC)OC(=O)CCCN(CCCC(=O)OC(CCCCCCC)CCCCCCC)C(=O)SCCCN(CC)CC` noted as 6.31

Measured pKa, `CCCCCC/C=C\COC(=O)CN(CC(=O)OC(CCCCCCCC)CCCCCCCC)C(=O)SCCCN(CC)CC` : 6.2

pKa in this record for `CCCCCC/C=C\COC(=O)CCCN(CCCC(=O)OC(CCCCCCC)CCCCCCC)C(=O)SCCN(C)C` : 6.04

get_value(item= `CCCCCC/C=C\COC(=O)CCCCCN(CCCCCC(=O)OC(CCCCCC)CCCCCC)C(=O)SCCN(C)C` , readout=pKa) returns 6.11

Cited source: patent US20210323914A1
